Test system: 953936-095-R-J2-PDC spheroids with HUVEC/MSC, viability;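 further: spheroids exposed to compounds for seven days before read-out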
experiment: Anticancer human tumor 953936-095-R-J2-PDC patient-derived cervical squamous cell carcinoma cell line growth inhibition [PI3K]
stated-conditions: curve of first compound; second compound 1 µM
quantity-kind: IC50

Consider the worked cases shown below.
CCCS(=O)(=O)Nc1ccc(F)c(C(=O)c2c[nH]c3ncc(-c4ccc(Cl)cc4)cc23)c1F + CC(Nc1ccc2c(c1)OCCn1cc(N3C(=O)OCC3C(F)F)nc1-2)C(N)=O :: < 0.0316 µM
CCN1CCN(Cc2ccc(Nc3ncc(F)c(-c4cc(F)c5nc(C)n(C(C)C)c5c4)n3)nc2)CC1 + CC(Nc1ncnc2nc[nH]c12)c1cc2cccc(Cl)c2c(=O)n1-c1ccccc1 :: > 1 µM
CC(Cn1ccc(-c2ccc(C#N)c(Cl)c2)n1)NC(=O)c1cc(C(C)O)[nH]n1 (stereo unspecified) + CC(Nc1ccc2c(c1)OCCn1cc(N3C(=O)OCC3C(F)F)nc1-2)C(N)=O :: < 0.0316 µM

// recorded IC50 for CC(=O)c1c(C)c2cnc(Nc3ccc(N4CCNCC4)cn3)nc2n(C2CCCC2)c1=O + COc1c(OCCCN2CCOCC2)ccc2c3n(c(=NC(=O)c4cnc(N)nc4)nc12)CCN3 : < 0.000316 µM

// recorded IC50 for Cn1cnc2c(F)c(Nc3ccc(Br)cc3Cl)c(C(=O)NOCCO)cc21 + CC(Nc1ccc2c(c1)OCCn1cc(N3C(=O)OCC3C(F)F)nc1-2)C(N)=O : < 0.00949 µM

// recorded IC50 for Cn1ncc(Cl)c1-c1cc(C(=O)NC(CN)Cc2cccc(F)c2)sc1Cl (stereo unspecified) + CC(Nc1ncnc2nc[nH]c12)c1cc2cccc(Cl)c2c(=O)n1-c1ccccc1 : 0.49 µM
